Data provenance: patent US12528802B2

Target: glucosylceramide synthase (Homo sapiens)
Construct: made in house; host or cells: Expi293F cells (transient expression, pcDNA3.3-TOPO vector); microsome fraction used as enzyme source
Sequence (Q16739 1-394): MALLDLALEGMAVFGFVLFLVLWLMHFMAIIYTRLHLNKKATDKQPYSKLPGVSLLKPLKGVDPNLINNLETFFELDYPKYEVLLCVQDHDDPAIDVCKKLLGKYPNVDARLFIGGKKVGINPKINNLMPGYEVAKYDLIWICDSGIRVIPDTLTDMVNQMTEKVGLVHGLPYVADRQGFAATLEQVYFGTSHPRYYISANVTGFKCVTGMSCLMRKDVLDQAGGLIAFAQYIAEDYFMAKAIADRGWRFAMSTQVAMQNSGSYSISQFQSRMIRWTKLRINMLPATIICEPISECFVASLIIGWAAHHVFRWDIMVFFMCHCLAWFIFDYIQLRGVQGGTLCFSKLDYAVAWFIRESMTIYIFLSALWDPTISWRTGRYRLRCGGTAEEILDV
Experiment: Glucosylceramide synthase (GCS) enzyme assay, microsome fraction, C8 glucosylceramide quantified by Rapidfire MS/MS
Assay type: biochemical
Conditions: test compound 10 μM; 1.7 μM UDP-glucose, 3 μM C8 ceramide; room temperature 60 min; read-out: GCS enzyme inhibitory rate at 10 μM (%) (% of control)
MEASUREMENT TYPE: inhibition at 10 µM (%)
Give the number; % is assumed, so skip it.

Guide cases for inhibition at 10 µM, answers given:
{"MOLECULE": "O=C1c2ccnc(-c3ccc(F)cc3OC(F)F)c2CN1c1ccc(F)cn1 [Example 52]", "MEASUREMENT TYPE": "inhibition at 10 µM", "ENDPOINT UNIT": "%", "RESULT NUMBER": 67}
{"MOLECULE": "CC(C)(O)c1cc2c(c(-c3ccccc3OCC(F)F)n1)CN(c1ccc(OCC(F)(F)F)cc1)C2=O [Example 354]", "MEASUREMENT TYPE": "inhibition at 10 µM", "ENDPOINT UNIT": "%", "RESULT NUMBER": 100}
{"MOLECULE": "CC(C)(O)COc1ccc(N2Cc3c(ccnc3-c3ccccc3OCC(F)(F)F)C2=O)nc1 [Example 297]", "MEASUREMENT TYPE": "inhibition at 10 µM", "ENDPOINT UNIT": "%", "RESULT NUMBER": 100}
{"MOLECULE": "O=C1c2ccnc(-c3ccncc3OCC(F)(F)F)c2CN1c1ccc(OC(F)F)cc1 [Example 104]", "MEASUREMENT TYPE": "inhibition at 10 µM", "ENDPOINT UNIT": "%", "RESULT NUMBER": 99}
{"MOLECULE": "COc1ccccc1-c1nccc2c1CN(c1ccc(OC(F)(F)F)cc1)C2=O [Example 3]", "MEASUREMENT TYPE": "inhibition at 10 µM", "ENDPOINT UNIT": "%", "RESULT NUMBER": 98}

// query Quick check: inhibition at 10 µM of O=C1CCCN1Cc1ccc(N2Cc3c(ccnc3-c3ccc(F)cc3OCC(F)(F)F)C2=O)cc1 [Example 211] ?
// result 81

// query Quick check: inhibition at 10 µM of COc1ccccc1-c1nccc2c1CN(c1ccc(C#N)cc1)C2=O [Example 18] ?
// result 56

// query Quick check: inhibition at 10 µM of N#CCc1ccc(N2Cc3c(ccnc3-c3ccc(F)cc3OCC(F)(F)F)C2=O)cc1 [Example 237] ?
// result 91

// query Quick check: inhibition at 10 µM of CC(O)c1cc2c(c(-c3ccccc3OCC(F)F)n1)CN(c1ccc(OC(F)F)cc1)C2=O (racemic) [Example 358] ?
// result 100

// query Quick check: inhibition at 10 µM of N#Cc1ccc(N2Cc3c(ccnc3-c3ccccc3OCC(F)(F)F)C2=O)nc1 [Example 72] ?
// result 100

// query Quick check: inhibition at 10 µM of CC(O)(c1ccc(N2Cc3c(ccnc3-c3ccccc3OCC(F)(F)F)C2=O)cc1)C(F)(F)F (racemic) [Example 295] ?
// result 100

// query Quick check: inhibition at 10 µM of CC(C)(C)[Si](C)(C)OC1(c2ccc(N3Cc4c(ccnc4-c4ccccc4OCC(F)(F)F)C3=O)cc2)CC1 [Example 221] ?
// result 99

// query Quick check: inhibition at 10 µM of COCCn1cc(N2Cc3c(ccnc3-c3ccc(F)cc3OCC(F)(F)F)C2=O)cn1 [Example 154] ?
// result 85

// query Quick check: inhibition at 10 µM of N#CC1(c2ccc(N3Cc4c(ccnc4-c4ccc(F)cc4OCC(F)F)C3=O)cc2)CC1 [Example 302] ?
// result 92

// query Quick check: inhibition at 10 µM of CC(C)(O)c1ccc(N2Cc3c(ncnc3-c3ccccc3OCC(F)(F)F)C2=O)cc1 [Example 200] ?
// result 95

// query Quick check: inhibition at 10 µM of O=C1c2ccnc(-c3ccc(F)cc3OCC(F)(F)F)c2CN1c1ccc(OC(F)F)nc1 [Example 65] ?
// result 95

// query Quick check: inhibition at 10 µM of COc1ccccc1-n1ncc2c1CN(c1ccc(F)cc1)C2 [Example 183] ?
// result 83
